Entry source: patent US20190064129A1

# Assay Remarks: LC-MS/MS quantitation of drug in donor serum/plasma
# Assay type: in vivo, human
# Run Conditions: human, plasma, 1 mg; Donor 0565; weight 118.040 kg; 1.383 hr after last dose
Measured Metric: concentration at 1.383 hr (ng/mL)
One number for each entry, in ng/mL.

Consider the compound COc1ccc2c3c1O[C@H]1C(=O)CC[C@@]4(O)[C@@H](C2)N(C)CC[C@]314 and give its measured concentration at 1.383 hr.
33.7
